target: PARP7 (Homo sapiens (Human), UniProt Q7Z3E1); assay: TR-FRET assay: displacement of biotinylated Probe A from the TIPARP active site (Enzymatic Assay for Inhibition of PARP7); settings: TIPARP 6 nM, Probe A 2 nM, 25° C.
Sequence (Q7Z3E1 whole entry): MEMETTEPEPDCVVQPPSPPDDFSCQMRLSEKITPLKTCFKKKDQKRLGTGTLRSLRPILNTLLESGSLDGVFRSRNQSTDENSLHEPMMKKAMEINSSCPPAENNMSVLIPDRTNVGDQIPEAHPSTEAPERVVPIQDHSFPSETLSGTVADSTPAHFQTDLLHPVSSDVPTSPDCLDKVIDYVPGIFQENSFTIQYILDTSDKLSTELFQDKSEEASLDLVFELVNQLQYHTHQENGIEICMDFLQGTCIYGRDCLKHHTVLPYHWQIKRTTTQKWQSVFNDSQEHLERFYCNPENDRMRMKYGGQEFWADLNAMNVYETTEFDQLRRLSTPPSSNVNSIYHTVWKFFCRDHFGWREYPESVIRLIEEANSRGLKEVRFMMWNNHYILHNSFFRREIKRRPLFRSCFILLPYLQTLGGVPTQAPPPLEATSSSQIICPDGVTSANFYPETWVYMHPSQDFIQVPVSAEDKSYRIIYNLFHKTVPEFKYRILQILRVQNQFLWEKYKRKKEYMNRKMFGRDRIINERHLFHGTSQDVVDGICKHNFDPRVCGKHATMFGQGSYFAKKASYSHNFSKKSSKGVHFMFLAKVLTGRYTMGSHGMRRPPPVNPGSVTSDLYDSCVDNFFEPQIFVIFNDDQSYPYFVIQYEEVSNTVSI
QUANTITY_NAME: IC50

Some solved cases for reference:
- MOLECULE: "C[C@@H](CO[C@H]1CCN(C2CCN(c3ccc(C#N)cn3)CC2)C1=O)Nc1cn[nH]c(=O)c1C(F)(F)F [Example 14A]"
  IC50: "≥ 1000 nM"
- MOLECULE: "C[C@@H](CO[C@@H]1CCN(C2CCN(c3ncc(C(F)(F)F)cn3)CC2O)C1=O)Oc1cn[nH]c(=O)c1C(F)(F)F (stereo partly shown) [Example 64B]"
  IC50: "< 100 nM"
- MOLECULE: "CN(C(=O)COC[C@@H]1CCN1c1cn[nH]c(=O)c1C(F)(F)F)C1CCN(c2ncc(C(F)(F)F)cn2)CC1"
  IC50: "< 100 nM"

Simply: `C[C@@H](CO[C@@H]1CCN([C@H]2CCN(c3ncc(C(F)(F)F)cn3)C[C@H]2O)C1=O)Nc1cn[nH]c(=O)c1C(F)(F)F` , PARP7 (Homo sapiens (Human), UniProt Q7Z3E1), IC50 = < 100 nM

C[C@@H](CO[C@@H]1CCN([C@@H]2CCN(c3ccc(C#N)cn3)CC2(F)F)C1=O)Nc1cn[nH]c(=O)c1C(F)(F)F (single isomer, unassigned) [Example 40A] tested on PARP7 (Homo sapiens (Human), UniProt Q7Z3E1) gave IC50: < 100 nM

Bench note, PARP7 (Homo sapiens (Human), UniProt Q7Z3E1): Cc1cnc(N2CCC(N3CC[C@H](OC[C@H](C)Oc4cn[nH]c(=O)c4C(F)(F)F)C3=O)CC2)nc1 [Example 49A] , IC50 reads 100 to 1000 nM

Entry C[C@@H](CN[C@H]1CCN(C2CCN(c3ncc(C(F)(F)F)cn3)CC2)C1=O)Nc1cn[nH]c(=O)c1C(F)(F)F (single isomer, unassigned) [Example 26A] : IC50 on PARP7 (Homo sapiens (Human), UniProt Q7Z3E1) = ≥ 1000 nM

----------
target: PARP7 (Homo sapiens (Human), UniProt Q7Z3E1); experiment: TR-FRET assay: displacement of biotinylated Probe A from the TIPARP active site (Enzymatic Assay for Inhibition of PARP7); conditions: TIPARP 6 nM, Probe A 2 nM, 25° C.
pIC50: −log10 of the molar value.
QUANTITY_NAME: pIC50

Consider the worked cases shown below.
- MOLECULE: "C[C@@H](O)[C@@H](CO[C@@H]1CCN(C2CCN(c3ncc(C(F)(F)F)cn3)CC2)C1=O)Nc1cn[nH]c(=O)c1C(F)(F)F"
  QUANTITY_NAME: "pIC50"
  VALUE_OBSERVED: "> 7.00"
- MOLECULE: "C[C@@H](CN[C@@H]1CCN(C2CCN(c3ncc(C(F)(F)F)cn3)CC2)C1=O)Nc1cn[nH]c(=O)c1C(F)(F)F [Example 26B]"
  QUANTITY_NAME: "pIC50"
  VALUE_OBSERVED: "> 7.00"
- MOLECULE: "C[C@@H](COCC(=O)N(C)C1CCN(c2ncc(C(F)(F)F)s2)CC1)Nc1cn[nH]c(=O)c1C(F)(F)F"
  QUANTITY_NAME: "pIC50"
  VALUE_OBSERVED: "> 7.00"
- MOLECULE: "C[C@@H](CO[C@@H]1CCN(C2CCN(c3ncc(C(F)(F)F)cn3)CC2C(N)=O)C1=O)Nc1cn[nH]c(=O)c1C(F)(F)F (stereo partly shown)"
  QUANTITY_NAME: "pIC50"
  VALUE_OBSERVED: "> 7.00"
- MOLECULE: "C[C@@H](CO[C@@H]1CCN([C@@H]2CCN(c3ncc(C(F)(F)F)cn3)C[C@H]2F)C1=O)Nc1cn[nH]c(=O)c1C(F)(F)F (single isomer, unassigned) [Example 38A]"
  QUANTITY_NAME: "pIC50"
  VALUE_OBSERVED: "> 7.00"
- MOLECULE: "C[C@@H](CO[C@@H]1CCN([C@@H]2CCN(c3ncc(C(F)(F)F)cn3)C[C@@H]2O)C1=O)Nc1cn[nH]c(=O)c1C(F)(F)F"
  QUANTITY_NAME: "pIC50"
  VALUE_OBSERVED: "> 7.00"
- MOLECULE: "COC[C@@H](CO[C@@H]1CCN(C2CCN(c3ncc(C)cn3)CC2)C1=O)Oc1cn[nH]c(=O)c1C(F)(F)F [Example 52B]"
  QUANTITY_NAME: "pIC50"
  VALUE_OBSERVED: "> 7.00"
- MOLECULE: "C[C@H](CN[C@H]1CCN(C2CCN(c3ncc(C(F)(F)F)cn3)CC2)C1=O)Nc1cn[nH]c(=O)c1C(F)(F)F (single isomer, unassigned) [Example 26C]"
  QUANTITY_NAME: "pIC50"
  VALUE_OBSERVED: "≤ 6.00"

Next molecule, please.
Looking up Cc1cnc(N2CCC(N3CC[C@@H](OC[C@H](C)Oc4cn[nH]c(=O)c4C(F)(F)F)C3=O)CC2)nc1 [Example 49B] , I found its pIC50 recorded as > 7.00

----------
biological target: PARP7 (Homo sapiens (Human)); experiment: TR-FRET assay: displacement of biotinylated Probe A from the TIPARP active site (Enzymatic Assay for Inhibition of PARP7); conditions: TIPARP 6 nM, Probe A 2 nM, 25° C.
QUANTITY_NAME: IC50

Check out these entries, answers already filled in.
- COMPOUND: "C[C@@H](CO[C@@H]1CCN(C2CCN(c3cnc(C(F)(F)F)cn3)CC2)C1=O)Nc1cn[nH]c(=O)c1C(F)(F)F [Example 13B]"
  IC50: "< 100 nM"
- COMPOUND: "C[C@@H](CO[C@H]1CCN(C2CCN(c3ncc(C(F)(F)F)cn3)CC2)C1=O)Nc1cn[nH]c(=O)c1C(F)(F)F [Example 10A]"
  IC50: "100 to 1000 nM"
- COMPOUND: "C[C@@H](CN(C)C1CCN(C2CCN(c3ncc(C(F)(F)F)cn3)CC2)C1=O)Nc1cn[nH]c(=O)c1C(F)(F)F (some centres unmarked)"
  IC50: "< 100 nM"

IC50 recorded for this compound, COC[C@@H](CO[C@H]1CCN(C2CCN(c3ncc(C(F)(F)F)cn3)CC2)C1=O)Oc1cn[nH]c(=O)c1C(F)(F)F [Example 51A] , is 100 to 1000 nM

COC[C@@H](CO[C@@H]1CCN(C2CCN(c3ncc(C(F)(F)F)cn3)CC2)C1=O)Oc1cn[nH]c(=O)c1Br [Example 56B] has a reported IC50 of < 100 nM

For this compound ( C[C@@H](CO[C@@H]1CCN([C@H]2CCN(c3ncc(C(F)(F)F)cn3)C[C@H]2F)C1=O)Nc1cn[nH]c(=O)c1C(F)(F)F (single isomer, unassigned) [Example 39B] ), measured IC50 is < 100 nM

Short answer for COC[C@@H](CO[C@H]1CCN(C2CCN(c3ncc(C)cn3)CC2)C1=O)Oc1cn[nH]c(=O)c1C(F)(F)F [Example 52A] : IC50 was 100 to 1000 nM

Sure, the documented IC50 for C[C@@H](CO[C@H]1C(=O)N(C2CCN(c3ncc(C(F)(F)F)cn3)CC2)C[C@@H]1C)Nc1cn[nH]c(=O)c1C(F)(F)F [Example 37B] is < 100 nM

Lab book: IC50 of C[C@@H](CO[C@@H]1CCN(C2CCN(c3ncc(C(F)(F)F)cn3)CC2)C1=O)Oc1cn[nH]c(=O)c1C(F)(F)F [Example 20B] noted as < 100 nM

Summary for this compound, C[C@@H](COCC(=O)N[C@H]1CCN(c2ncc(C(F)(F)F)cn2)C[C@@H]1O)Nc1cn[nH]c(=O)c1C(F)(F)F (single isomer, unassigned) [Example 33B] : IC50 is < 100 nM

The reported value for COC[C@@H](CO[C@@H]1CCN(C2CCN(c3cnc(C(F)(F)F)cn3)CC2)C1=O)Nc1cn[nH]c(=O)c1C(F)(F)F [Example 18B] in terms of IC50 is < 100 nM

COC[C@@H](CO[C@@H]1CCN(C2CCN(c3ccc(C#N)cn3)CC2)C1=O)Nc1cn[nH]c(=O)c1C(F)(F)F [Example 17B] has a reported IC50 of < 100 nM

Given item C[C@@H](CO[C@H]1CCN(C2CCN(c3ccc(C#N)cn3)CC2)C1=O)Oc1cn[nH]c(=O)c1Br [Example 48B] , the value recorded as its IC50 is < 100 nM

----------
biological target: PARP7 (Homo sapiens (Human)); assay: TR-FRET assay: displacement of biotinylated Probe A from the TIPARP active site (Enzymatic Assay for Inhibition of PARP7); conditions: TIPARP 6 nM, Probe A 2 nM, 25° C.
pIC50: −log10 of the molar value.
QUANTITY_NAME: pIC50

Solved entries:
- COMPOUND: "C[C@@H](COC1CCN([C@@H]2CCN(c3ncc(C(F)(F)F)cn3)C[C@H]2O)C1=O)Oc1cn[nH]c(=O)c1C(F)(F)F (stereo partly shown) [Example 65]"
  STUDY_TARGET: "PARP7 (Homo sapiens (Human))"
  VALUE_OBSERVED: "> 7.00"
- COMPOUND: "C[C@@H](COCC(=O)N[C@@H]1CCN(c2ncc(C(F)(F)F)cn2)C[C@H]1O)Nc1cn[nH]c(=O)c1C(F)(F)F (single isomer, unassigned) [Example 33A]"
  STUDY_TARGET: "PARP7 (Homo sapiens (Human))"
  VALUE_OBSERVED: "> 7.00"
- COMPOUND: "C[C@@H](COCC(=O)N(C)C1CCN(c2cnc(C(F)(F)F)cn2)CC1)Nc1cn[nH]c(=O)c1C(F)(F)F [Example 4]"
  STUDY_TARGET: "PARP7 (Homo sapiens (Human))"
  VALUE_OBSERVED: "> 7.00"

What the record says about C[C@@H](COC1CCN(C2CCN(c3cnc(C(F)(F)F)cn3)CC2)C1=O)Nc1cn[nH]c(=O)c1Br (stereo partly shown) [Example 12] : pIC50 is > 7.00

pIC50 reported for this compound COC[C@@H](CO[C@H]1CCN(C2CCN(c3ncc(C(F)(F)F)cn3)CC2)C1=O)Nc1cn[nH]c(=O)c1C(F)(F)F [Example 19A] : 6.00 to 7.00

Sample C[C@@H](COCC(=O)N(C)C1CCN(c2ncc(C(F)(F)F)cn2)CC1)Oc1cn[nH]c(=O)c1C(F)(F)F [Example 25] ; pIC50 observed: > 7.00

Documented pIC50 of COC[C@@H](CO[C@H]1CCN(C2CCN(c3cnc(C(F)(F)F)cn3)CC2)C1=O)Nc1cn[nH]c(=O)c1C(F)(F)F [Example 18A] : 6.00 to 7.00

Looking up C[C@@H](CO[C@@H]1CCN([C@H]2CCN(c3ccc(C#N)cn3)CC2(F)F)C1=O)Nc1cn[nH]c(=O)c1C(F)(F)F (single isomer, unassigned) [Example 40B] , I see its pIC50 listed as > 7.00

Looking up O=C1[C@H](OC[C@H](CNCC(F)(F)F)Nc2cn[nH]c(=O)c2C(F)(F)F)CCN1C1CCN(c2ncc(C(F)(F)F)cn2)CC1 [Example 62] , I see its pIC50 listed as > 7.00

Measured pIC50, C[C@@H](COC1CCN(C2CCN(c3ncc(C(F)(F)F)cn3)CC2)C1)Nc1cn[nH]c(=O)c1C(F)(F)F (stereo partly shown) [Example 21] : 6.00 to 7.00
